- Study Target: MCR-1 (Homo sapiens, UniProt Q01726)
- Construct: expressed in transfected cells; host or cells: HEK 293
- Sequence (Q01726 whole entry): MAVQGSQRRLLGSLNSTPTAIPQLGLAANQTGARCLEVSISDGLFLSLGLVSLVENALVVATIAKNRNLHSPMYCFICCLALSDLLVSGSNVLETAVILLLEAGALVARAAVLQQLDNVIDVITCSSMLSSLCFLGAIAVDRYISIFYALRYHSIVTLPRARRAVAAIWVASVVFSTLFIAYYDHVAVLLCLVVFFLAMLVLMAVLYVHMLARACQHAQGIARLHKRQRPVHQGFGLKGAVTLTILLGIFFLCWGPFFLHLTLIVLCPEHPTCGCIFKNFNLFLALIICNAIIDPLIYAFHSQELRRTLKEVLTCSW
- Procedure Summary: Melanocortin receptor binding assay, competition with 125I-HP 467, HEK 293 cells expressing hMCR-1
- Recorded Conditions: 10 μM isoquinoline compound, HEK 293 cells expressing MCR-1, duplicate 1
# % Disp. of 125I-HP 467 (first of duplicate) annotations

Compound	Obs Value
CNC(CN)CCCCN1Cc2ccccc2C(CNC2CCCCC2)C1c1cccs1 (stereo not shown) [TRG 2405-203]	58.1%
CCn1c2ccccc2c2cc(C3C(CNC4CCCCC4)c4ccccc4CN3CC(CN)NC)ccc21 (stereo not shown) [TRG 2405-173]	67%

Prompt line: What % Disp. of 125I-HP 467 (first of duplicate) appears in the records for this compound with MCR-1 (Homo sapiens, UniProt Q01726)? CNC(CN)CCCCN1Cc2ccccc2C(CNC2CCCCC2)C1c1cccc(Oc2ccc(Cl)c(Cl)c2)c1 (mixture of isomers) [TRG 2405-213]
Response line: 80%

Prompt line: What % Disp. of 125I-HP 467 (first of duplicate) appears in the records for this compound with MCR-1 (Homo sapiens, UniProt Q01726)? CNC(CN)CCCCN1Cc2ccccc2C(CNC2CCCCC2)C1c1ccccc1OC (stereo not shown) [TRG 2405-199]
Response line: 71.5%

----------
- Study Target: MCR-1 (Homo sapiens)
- Construct: expressed in transfected cells; host or cells: HEK 293
- Procedure Summary: Melanocortin receptor binding assay, competition with 125I-HP 467, HEK 293 cells expressing hMCR-1
- Recorded Conditions: 10 μM isoquinoline compound, HEK 293 cells expressing MCR-1, duplicate 1
Rule: true for % Disp. of 125I-HP 467 (first of duplicate) not less than 70%, false for anything less.

Prompt line: Decide: is the reported value of % Disp. of 125I-HP 467 (first of duplicate) for CNC(CN)CCCCN1Cc2ccccc2C(CNC2CCCCC2)C1c1ncc[nH]1 (stereo not shown) equal to or greater than 70%?
Response line: false

Prompt line: Decide: is the reported value of % Disp. of 125I-HP 467 (first of duplicate) for CNC(CN)CCCCN1Cc2ccccc2C(CNC2CCCCC2)C1c1ccc(OC)c(S(=O)(=O)O)c1 (stereo not shown) equal to or greater than 70%?
Response line: false

Prompt line: Decide: is the reported value of % Disp. of 125I-HP 467 (first of duplicate) for CNC(CN)CCCCN1Cc2ccccc2C(CNC2CCCCC2)C1c1ccc[nH]1 (mixture of isomers) equal to or greater than 70%?
Response line: false

Prompt line: Decide: is the reported value of % Disp. of 125I-HP 467 (first of duplicate) for CNC(CN)CCCCN1Cc2ccccc2C(CNC2CCCCC2)C1c1ccccc1Br (stereo not shown) equal to or greater than 70%?
Response line: true

Prompt line: Decide: is the reported value of % Disp. of 125I-HP 467 (first of duplicate) for CNC(CN)CCCCN1Cc2ccccc2C(CNC2CCCCC2)C1c1ccc(C(F)(F)F)cc1 (stereo not shown) equal to or greater than 70%?
Response line: true

----------
- Study Target: MCR-1 (Homo sapiens)
- Construct: expressed in transfected cells; host or cells: HEK 293
- Procedure Summary: Melanocortin receptor binding assay, competition with 125I-HP 467, HEK 293 cells expressing hMCR-1
- Recorded Conditions: inhibition of binding of 125I-HP 467, HEK 293 cells expressing MCR-1; TRG 2414 library; read-out: MC-1 IC50
# IC50 annotations

Molecule	IC50
NCC(N)CCCCN1Cc2ccccc2C(CNCCc2cccc(Cl)c2)C1c1cccc(Oc2ccccc2)c1 (stereo not drawn)	6.3 µM

Prompt line: Given the molecule NCC(CCCCN1Cc2ccccc2C(CNCc2ccccc2C(F)(F)F)C1c1cc(C(F)(F)F)cc(C(F)(F)F)c1)NCCc1ccccc1 (stereo not drawn) , what is its reported IC50?
Response line: 32.8 µM

Prompt line: Given the molecule NCC(CCCCN1Cc2ccccc2C(CNCc2ccccc2)C1c1cc(C(F)(F)F)cc(C(F)(F)F)c1)NCc1ccccc1 (stereo not drawn) , what is its reported IC50?
Response line: 17 µM

Prompt line: Given the molecule COc1ccc(CNCC2c3ccccc3CN(CCCCC(CN)NCC(C)c3ccc(CC(C)C)cc3)C2c2cc(C(F)(F)F)cc(C(F)(F)F)c2)cc1 (stereo not drawn) , what is its reported IC50?
Response line: 34.5 µM

Prompt line: Given the molecule CC(C)Cc1ccc(C(C)CNC(CN)CCCCN2Cc3ccccc3C(CNC3CCCCC3)C2c2cccc(Oc3ccccc3)c2)cc1 (stereo not drawn) , what is its reported IC50?
Response line: 25 µM

Prompt line: Given the molecule COc1cccc(CNCC2c3ccccc3CN(CCCCC(CN)NCCc3ccccc3)C2c2ccc(Oc3ccccc3)cc2)c1 (stereo not drawn) , what is its reported IC50?
Response line: 10.6 µM
